Just for reference, patent US20240270821A1 is where these values come from.

// log10(cAMP Rel EC50 (1% HSA)) lookup, one value per entry
- tested system: T1, human GIP receptor (human) (UniProt P48546)
- T1 sequence (looked up): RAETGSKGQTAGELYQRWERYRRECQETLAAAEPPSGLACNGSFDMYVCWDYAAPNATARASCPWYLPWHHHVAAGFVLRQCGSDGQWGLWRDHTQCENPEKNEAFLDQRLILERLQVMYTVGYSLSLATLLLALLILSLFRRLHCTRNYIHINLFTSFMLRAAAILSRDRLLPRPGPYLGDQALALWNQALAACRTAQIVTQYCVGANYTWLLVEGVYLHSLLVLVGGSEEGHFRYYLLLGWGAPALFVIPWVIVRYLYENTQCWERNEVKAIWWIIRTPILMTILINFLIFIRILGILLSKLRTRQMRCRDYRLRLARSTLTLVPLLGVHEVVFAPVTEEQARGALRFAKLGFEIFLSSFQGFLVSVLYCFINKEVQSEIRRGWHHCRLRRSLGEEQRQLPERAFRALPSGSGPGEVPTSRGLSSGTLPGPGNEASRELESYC
- test method notes: cell-based or functional assay
Starred links: 1 amine or outer side, 2 acyl side, 3 side chain; linkers in the order of their positions; H or OH if unused. Non-standard residues stand in square brackets, D forms with d. Groups on a side chain read outwards from the residue. No end group written: not given here. *: point of attachment. C20 diacid = O=C(O)CCCCCCCCCCCCCCCCCCC(=O)*; C18 diacid = O=C(O)CCCCCCCCCCCCCCCCC(=O)*; γGlu = O=C(O)[C@H](CCC(=O)[*:2])N[*:1]; NMeY = CN[C@@H](Cc1ccc(O)cc1)C(=O)O; αMe4Pal = C[C@](N)(Cc1ccncc1)C(=O)O; αMeF = C[C@](N)(Cc1ccccc1)C(=O)O; 4Pal = N[C@@H](Cc1ccncc1)C(=O)O; αMeL = CC(C)C[C@](C)(N)C(=O)O; Orn = NCCC[C@H](N)C(=O)O; Dab = NCC[C@H](N)C(=O)O; AEEA = NCCOCCOCC(=O)O; Aib = CC(C)(N)C(=O)O
measured metric: log10(cAMP Rel EC50 (1% HSA)) (log10 of the value in nM)

>  <binder>
Y[Aib]QGTFTSDYSI[αMeL]LDKQAAK([AEEA-AEEA-γGlu-C20 diacid])AFVEWLLA[Aib]GPSSGEPPPSEG-NH2 [Example 317]

>  <log10(cAMP Rel EC50 (1% HSA))>
1.80

$$$$
>  <binder>
Y[Aib]QGTFTSD[4Pal]S[Dab][αMeL]LD[Orn]K([γGlu-γGlu-C18 diacid])AQ[Aib]AFIE[αMe4Pal]LLAGGPSSGAPPPEGSEE-NH2 [Example 1054]

>  <log10(cAMP Rel EC50 (1% HSA))>
1.90

$$$$
>  <binder>
YXQGTXTSDXXIXLDXKAQXXFIEYLSEGGPSSGEPPPSGTE (synthetic construct; SITE 2: note = 2-Aminoisobutyric Acid; SITE 6: note = alpha-methyl-2-fluoro-L-phenylalanine; SITE 10: note = 3-(4-Pyridyl)-L-alanine; SITE 11: note = alpha-methyl-L-serine; SITE 13: note = alpha-methyl-leucine; SITE 16: note = L-ornithine; SITE 17: note = Lysine is chemically mo) [Example 530]

>  <log10(cAMP Rel EC50 (1% HSA))>
1.80

$$$$
>  <binder>
YXQGTXTSDXSILLDKKAQXAFIEYLEEGGPSSGAPPPSGTGE (synthetic construct; SITE 2: note = 2-Aminoisobutyric Acid; SITE 6: note = alpha-methyl-2-fluoro-L-phenylalanine; SITE 10: note = 3-(4-Pyridyl)-L-alanine; SITE 17: note = Lysine is chemically modified through conjugation of the epsilon-amino group of the Lysine side chain with (2-[2-(2-Amino-ethoxy))) [Example 662]

>  <log10(cAMP Rel EC50 (1% HSA))>
0.67

$$$$
>  <binder>
YXQGTXTSDXSILLDKKAQXAFIEXLEEGGPSSGAPPPSGTGE (synthetic construct; SITE 2: note = 2-Aminoisobutyric Acid; SITE 6: note = alpha-methyl-2-fluoro-L-phenylalanine; SITE 10: note = 3-(4-Pyridyl)-L-alanine; SITE 17: note = Lysine is chemically modified through conjugation of the epsilon-amino group of the Lysine side chain with (2-[2-(2-Amino-ethoxy))) [Example 669]

>  <log10(cAMP Rel EC50 (1% HSA))>
0.15

$$$$
>  <binder>
YXQGTFTSDXSQXLDXKAQXAFIEXLLEGGPSSGAPPPSGS (non-natural residues; Lys acylated C18 diacid; C-terminal amide; synthetic construct; SITE 2: note = 2-Aminoisobutyric Acid; SITE 10: note = 3-(4-Pyridyl)-L-alanine; SITE 13: note = alpha-methyl-leucine; SITE 16: note = L-ornithine; SITE 17: note = Lysine is chemically modified through conjugation of the epsilon-amino group of the Lysine side chain with (2-[2-(2-) [Example 932]

>  <log10(cAMP Rel EC50 (1% HSA))>
1.40

$$$$
>  <binder>
YXQGTFTSDXSQXLDXKAQXAFIEYLIAXGPSSGEPPPSGSEE (non-natural residues; lipidated Lys; C-terminal amide; synthetic construct; SITE 2: note = 2-Aminoisobutyric Acid; SITE 10: note = 3-(4-Pyridyl)-L-alanine; SITE 13: note = alpha-methyl-leucine; SITE 16: note = L-ornithine; SITE 17: note = Lysine is chemically modified through conjugation of the epsilon-amino group of the Lysine side chain with D-Glutami) [Example 1101]

>  <log10(cAMP Rel EC50 (1% HSA))>
0.80

$$$$
>  <binder>
YXQGTXTSDXSIXLDXKAQXXFIEXLIEGGPSSGEPPPSGE (synthetic construct; SITE 2: note = 2-Aminoisobutyric Acid; SITE 6: note = alpha-methyl-2-fluoro-L-phenylalanine; SITE 10: note = 3-(4-Pyridyl)-L-alanine; SITE 13: note = alpha-methyl-leucine; SITE 16: note = L-ornithine; SITE 17: note = Lysine is chemically modified through conjugation of the epsil) [Example 682]

>  <log10(cAMP Rel EC50 (1% HSA))>
-0.38

$$$$
>  <binder>
YXQGTXTSDXSILLDKKAQXAFIEYLXEGGPSSGAPPPSGTGE (synthetic construct; SITE 2: note = 2-Aminoisobutyric Acid; SITE 6: note = alpha-methyl-2-fluoro-L-phenylalanine; SITE 10: note = 3-(4-Pyridyl)-L-alanine; SITE 17: note = Lysine is chemically modified through conjugation of the epsilon-amino group of the Lysine side chain with (2-[2-(2-Amino-ethoxy))) [Example 663]

>  <log10(cAMP Rel EC50 (1% HSA))>
1.01

$$$$
>  <binder>
Y[Aib]QGTFTSDYSI[αMeL]LDKQAAK([AEEA-AEEA-γGlu-C20 diacid])QFVEWLLAGGPSSGEPPPGEG-NH2 [Example 320]

>  <log10(cAMP Rel EC50 (1% HSA))>
1.74

$$$$
>  <binder>
Y[Aib]QGTFTSDYSI[αMeL]LDKQAAK([AEEA-AEEA-γGlu-C20 diacid])QFIEWLIEGGPSSGEPPPGAE-NH2 [Example 319]

>  <log10(cAMP Rel EC50 (1% HSA))>
1.78

$$$$
>  <binder>
Y[Aib]QGTFTSDYSI[αMeL]LD[Orn]QAAK([AEEA-AEEA-γGlu-C20 diacid])QFVEWLLA[Aib]GPSSGEPPPSEG-NH2 [Example 328]

>  <log10(cAMP Rel EC50 (1% HSA))>
1.96

$$$$
>  <binder>
YXQGTFTSDXSQXLDKKAQXAFIEYLLEAGPSSXAPPPSGT (synthetic construct; SITE 2: note = 2-Aminoisobutyric Acid; SITE 10: note = 3-(4-Pyridyl)-L-alanine; SITE 13: note = alpha-methyl-leucine; SITE 17: note = Lysine is chemically modified through conjugation of the epsilon-amino group of the Lysine side chain with (2-[2-(2-Amino-ethoxy)-ethoxy]-acetyl)) [Example 825]

>  <log10(cAMP Rel EC50 (1% HSA))>
1.59

$$$$
>  <binder>
YXQGTFTSDFSXXLDXKAQXAFIEXLLEGGPSSGAPPPGGSEE (Aib, Orn, αMeL, αMeY; acylated Lys; C-terminal amide; synthetic construct; SITE 2: note = 2-Aminoisobutyric Acid; SITE 12: note = L-ornithine; SITE 13: note = alpha-methyl-leucine; SITE 16: note = L-ornithine; SITE 17: note = Lysine is chemically modified through conjugation of the epsilon-amino group of the Lysine side chain with (gamma-Glu)2-CO-(CH2)) [Example 1049]

>  <log10(cAMP Rel EC50 (1% HSA))>
1.75

$$$$
>  <binder>
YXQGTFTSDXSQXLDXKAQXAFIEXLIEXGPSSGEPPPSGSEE (AEEA-γGlu-C18 diacid on Lys; non-natural residues; amide; synthetic construct; SITE 2: note = 2-Aminoisobutyric Acid; SITE 10: note = 3-(4-Pyridyl)-L-alanine; SITE 13: note = alpha-methyl-leucine; SITE 16: note = L-ornithine; SITE 17: note = Lysine is chemically modified through conjugation of the epsilon-amino group of the Lysine side chain with (2-[2-(2-) [Example 1097]

>  <log10(cAMP Rel EC50 (1% HSA))>
1.44

$$$$
>  <binder>
YXQGTFTSDFSKXLDKKAQXAFIEYLIEXGPSSGAPPPSGS (synthetic construct; SITE 2: note = 2-Aminoisobutyric Acid; SITE 13: note = alpha-methyl-leucine; SITE 17: note = Lysine is chemically modified through conjugation of the epsilon-amino group of the Lysine side chain with (2-[2-(2-Amino-ethoxy)-ethoxy]-acetyl)-(gamma-Glu)-CO-(CH2) 16-CO2H; SITE 20: n) [Example 797]

>  <log10(cAMP Rel EC50 (1% HSA))>
1.22

$$$$
>  <binder>
Y[Aib]QGTFTSDYSI[αMeL]LDKQAAKQFVEWLLA[Aib]GPSSGEPPPSEG (not fully specified (residue 20)) [Example 329]

>  <log10(cAMP Rel EC50 (1% HSA))>
1.63

$$$$
>  <binder>
[NMeY][Aib]QGT[αMeF]TSDYSSLLDKIAAKAFIEYLLEGGPSSGEPPPSEG-NH2 (not fully specified (residue 20)) [Example 297]

>  <log10(cAMP Rel EC50 (1% HSA))>
2.51

$$$$
>  <binder>
YXQGTFTSDXSQXLDXKAQXAFIQXLIEXGPSSGEPPPSGGGE (not fully specified; non-natural residues, C18 diacid acylation, C-terminal amide; synthetic construct; SITE 2: note = 2-Aminoisobutyric Acid; SITE 10: note = 3-(4-Pyridyl)-L-alanine; SITE 13: note = alpha-methyl-leucine; SITE 16: note = L-ornithine; SITE 17: note = Lysine is chemically modified through conjugation of the epsilon-amino group of the Lysine side chain with D-Glutami) [Example 1131]

>  <log10(cAMP Rel EC50 (1% HSA))>
0.74

$$$$
>  <binder>
YXQGTXTSDXSIXLDXKAQXXFIEXLIEGGPSSGEPPPEGT (synthetic construct; SITE 2: note = 2-Aminoisobutyric Acid; SITE 6: note = alpha-methyl-2-fluoro-L-phenylalanine; SITE 10: note = 3-(4-Pyridyl)-L-alanine; SITE 13: note = alpha-methyl-leucine; SITE 16: note = L-ornithine; SITE 17: note = Lysine is chemically modified through conjugation of the epsil) [Example 505]

>  <log10(cAMP Rel EC50 (1% HSA))>
0.32

$$$$
>  <binder>
YXQGTFTSDXSQXLDKKAQXAFIEYLIEXGPSSGAPPPSGSEE (non-natural residues, γGlu-C18 diacid acyl on K, C-terminal amide; synthetic construct; SITE 2: note = 2-Aminoisobutyric Acid; SITE 10: note = 3-(4-Pyridyl)-L-alanine; SITE 13: note = alpha-methyl-leucine; SITE 17: note = Lysine is chemically modified through conjugation of the epsilon-amino group of the Lysine side chain with (D-Glutamic acid)2-(gamma-Glu)-CO-(CH2)) [Example 929]

>  <log10(cAMP Rel EC50 (1% HSA))>
1.35

$$$$
